- EXPERIMENT_SUMMARY: Solubility study, Crystal16 apparatus, pH 6.8 buffer, nephelometric detection
- Format: physicochemical
- TEST_CONTEXT: pH 6.8 buffer solution, aqueous buffer, thermodynamic from solid, 25° C., reference under the study conditions, read-out: Solubility of agomelatine (reference)
MEASURE: solubility at 4 h (µg/mL)
Answer format: numeric, µg/mL implied, no suffix.

Enquiry: Using known records, supply solubility at 4 h for COc1ccc2cccc(CCNC(C)=O)c2c1 [agomelatine]
Return: 140

Measured values drawn from patent US20150238614A1 for this set.
